assay: AUC in rat at 25 mg/kg as solution after 24 hrs; format: ADME, organism-based; design: time < 24 hr, dose 25 mg/kg; conditions: plasma
Observed Property: AUC at 24 h (µM·h)
# output: bare number, implied unit µM·h

# AUC at 24 h of Cc1cc2c(F)c(Oc3ncnn4cc(OC[C@@H](C)O)c(C)c34)ccc2[nH]1 = 13.4

====

experiment: Mean residence time in BALB/c mouse at 10 mg/kg, iv after 24 hrs; type: ADME, organism-based; design: dose 10 mg/kg, route intravenous; conditions: in vivo
Observed Property: MRT (h)
Give the number; h is assumed, so skip it.

Lab note: Cc1cc2c(F)c(Oc3ncnn4cc(OC[C@@H](C)O)c(C)c34)ccc2[nH]1 [BRIVANIB] gave MRT of 3.6
